Where do the numbers come from? From BindingDB's records for doi:10.1016/j.str.2004.01.005.

molecular target: 3-phosphoinositide-dependent protein kinase 1 [51-359,E166D] (Homo sapiens, UniProt O15530, E166D); construct: 51-359; experiment: PDK1 Kinase Activity Assay; conditions: pH 7.5; 30 °C
QUANTITY: IC50 (µM)
Please give a number only; it is taken to be in µM.

Name the reported IC50 value associated with the molecule `NCCCn1cc(C2=C(c3c[nH]c4ccccc34)C(=O)NC2=O)c2ccccc21`
5.7

* * *

biological target: 3-phosphoinositide-dependent protein kinase 1 [51-359,L159M] (Homo sapiens, UniProt O15530, L159M); construct: 51-359; test: PDK1 Kinase Activity Assay; conditions: pH 7.5; 30 °C
QUANTITY: pIC50
pIC50 here: minus log base 10 of the concentration, concentration in moles per litre.

Name the reported pIC50 value associated with the molecule `NCCCn1cc(C2=C(c3c[nH]c4ccccc34)C(=O)NC2=O)c2ccccc21`
5.52

* * *

target: 3-phosphoinositide-dependent protein kinase 1 [51-359,V143T,T222A] (Homo sapiens, UniProt O15530, T222A/V143T); construct: 51-359; test: PDK1 Kinase Activity Assay; details: pH 7.5; 30 °C
QUANTITY: pIC50
pIC50 here: minus log base 10 of the concentration, concentration in moles per litre.

Name the reported pIC50 value associated with the compound `NCCCn1cc(C2=C(c3c[nH]c4ccccc34)C(=O)NC2=O)c2ccccc21`
5.70

* * *

biological target: 3-phosphoinositide-dependent protein kinase 1 [51-359,T222A] (Homo sapiens, UniProt O15530, T222A); construct: 51-359; assay: PDK1 Kinase Activity Assay; settings: pH 7.5; 30 °C
QUANTITY: IC50 (µM)
Please give a number only; it is taken to be in µM.

Name the reported IC50 value associated with the compound NCCCn1cc(C2=C(c3c[nH]c4ccccc34)C(=O)NC2=O)c2ccccc21 [Bisindolyl deriv. 19]
3.8

* * *

biological target: 3-phosphoinositide-dependent protein kinase 1 [51-359,A162V] (Homo sapiens, UniProt O15530, A162V); construct: 51-359; test: PDK1 Kinase Activity Assay; settings: pH 7.5; 30 °C
QUANTITY: IC50 (µM)
Please give a number only; it is taken to be in µM.

Name the reported IC50 value associated with the compound `NCCCn1cc(C2=C(c3c[nH]c4ccccc34)C(=O)NC2=O)c2ccccc21`
3.4

* * *

target: 3-phosphoinositide-dependent protein kinase 1 [51-359,V143T] (Homo sapiens, UniProt O15530, V143T); construct: 51-359; test: PDK1 Kinase Activity Assay; conditions: pH 7.5; 30 °C
QUANTITY: IC50 (nM)
Please give a number only; it is taken to be in nM.

Name the reported IC50 value associated with the compound `NCCCn1cc(C2=C(c3c[nH]c4ccccc34)C(=O)NC2=O)c2ccccc21`
2500

* * *

pIC50 values for the compounds below.
Target: 3-phosphoinositide-dependent protein kinase 1 [51-359] (Human)
Sequence (O15530 whole entry): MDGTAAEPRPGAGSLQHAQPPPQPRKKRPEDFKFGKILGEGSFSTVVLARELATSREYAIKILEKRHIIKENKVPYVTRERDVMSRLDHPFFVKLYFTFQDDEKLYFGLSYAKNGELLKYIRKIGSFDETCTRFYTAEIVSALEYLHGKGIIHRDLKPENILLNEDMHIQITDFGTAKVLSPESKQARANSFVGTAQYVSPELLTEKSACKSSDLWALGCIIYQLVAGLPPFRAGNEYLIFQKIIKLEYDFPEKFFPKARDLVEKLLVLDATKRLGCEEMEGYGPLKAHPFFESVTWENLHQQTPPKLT
pIC50 here: minus log base 10 of the concentration, concentration in moles per litre.

compound="CN1CCCC1CCn1cc(C2=C(c3c[nH]c4ccccc34)C(=O)NC2=O)c2ccccc21 (centres undefined)" target_desc="3-phosphoinositide-dependent protein kinase 1 [51-359] (Human)" quantity=pIC50 quantitative_result=4.85
compound=Cn1cc(C2=C(c3cn(CCCN)c4ccccc34)C(=O)NC2=O)c2ccccc21 target_desc="3-phosphoinositide-dependent protein kinase 1 [51-359] (Human)" quantity=pIC50 quantitative_result=6.00
compound=CN(C)CCCn1cc(C2=C(c3c[nH]c4ccccc34)C(=O)NC2=O)c2ccccc21 target_desc="3-phosphoinositide-dependent protein kinase 1 [51-359] (Human)" quantity=pIC50 quantitative_result=5.05

Turning now to a further compound:
Name the reported pIC50 value associated with the compound `NCCCn1cc(C2=C(c3c[nH]c4ccccc34)C(=O)NC2=O)c2ccccc21`
5.40
